B1: glmS ribozyme (parent)
chain: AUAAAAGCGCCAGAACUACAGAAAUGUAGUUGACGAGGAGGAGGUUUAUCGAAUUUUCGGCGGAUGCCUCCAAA

- Variants of: B1
- test: self-cleavage kobs at 640 uM GlcN6P; higher = faster cleavage; RNA array
- condition-notes: with glucosamine-6-phosphate
This sample holds only a part of the variants without activity.
recorded-metric: self-cleavage kobs at 640 uM GlcN6P (s⁻¹)

C11A C68U    3.2e-05
U31C C50G C70U    7.86e-05
C34G C58U A64C C67G    7.23e-05
G40C U65C    4.51e-05
A14G G40U G41C    7.7e-05
A15C C70G    6.25e-05
U56A U57A    4.44e-05
G38A U57A G66U C70A    6.22e-05
G9U C61A    0.000373
C16G U47C    0.000231
U45G U65G    0.000639
A53G U69C    0.00235
